- Protocol Text: MRP1 drug-resistance reversers in H69AR cells – cell-based, doxorubicin co-treatment, pilot screen (AID 601)
- Assay Context: H69AR cells + 2 uM doxorubicin, CellTiter-Glo, 72 h; measured here: viability with 2 uM doxorubicin; at 10 µM; stronger effect = lower value
Peptide text beside a SMILES is read from it. * marks the point of attachment. Boc = CC(C)(C)OC(=O)*
Strictly below 90% in viability: Condition met. Otherwise: Condition not met.

[ask] Take the molecule `O=S(=O)(c1ccccc1)N1CCN(C2CCCCCCC2)CC1` and say whether its viability is less than 90%.
[reply] Condition not met

[ask] Take the molecule `CCOC(=O)c1cc2oc(C)cc2n1CC(=O)OC1CCCCC1` and say whether its viability is less than 90%.
[reply] Condition met

[ask] Take the molecule CC(=O)OC(C(=O)NCc1ccco1)c1cccnc1 (stereo unspecified) and say whether its viability is less than 90%.
[reply] Condition met

[ask] Take the molecule CC(C)(C)OC(=O)N1CCCC1C(=O)N1CCCC1C(=O)N1CCCC1C(=O)O (stereo not drawn) (Boc-Pro-Pro-Pro-OH; configuration not given here) and say whether its viability is less than 90%.
[reply] Condition not met

[ask] Take the molecule COC(=O)c1ccccc1NC(=O)c1noc2c1CC(C(C)(C)C)CC2 (stereo unspecified) and say whether its viability is less than 90%.
[reply] Condition not met

[ask] Take the molecule COc1ccc(C2C(C(C)=O)=C(C)N=c3s/c(=C\c4ccc5c(c4)OCO5)c(=O)n32)c(OC)c1 (stereo unspecified) and say whether its viability is less than 90%.
[reply] Condition not met

[ask] Take the molecule `COc1ccc(S(=O)(=O)NCc2ccco2)cc1-c1nnc2c3ccccc3c(C)nn12` and say whether its viability is less than 90%.
[reply] Condition not met

[ask] Take the molecule N#CC(C(=O)NCCc1ccccc1)c1nc2ccccc2nc1N1CCOCC1 (stereo unspecified) and say whether its viability is less than 90%.
[reply] Condition met

[ask] Take the molecule `CCC1(CC)C(=O)N(C)C(=O)NC1=NCc1ccccc1` and say whether its viability is less than 90%.
[reply] Condition not met

[ask] Take the molecule `O=C(CSc1nnc(-c2ccccc2)o1)N1CCc2ccccc2C1` and say whether its viability is less than 90%.
[reply] Condition not met

[ask] Take the molecule `CCN1C(=O)/C(=C/N2CCc3ccccc32)SC1=S` and say whether its viability is less than 90%.
[reply] Condition met

[ask] Take the molecule `CCCn1c(SCC(=O)NCc2ccco2)nc2c1c(=O)n(C)c(=O)n2C` and say whether its viability is less than 90%.
[reply] Condition met

[ask] Take the molecule O=C(COC(=O)c1ccc(NS(=O)(=O)c2ccc3c(c2)OCCO3)cc1)NCC1CCCO1 (stereo unspecified) and say whether its viability is less than 90%.
[reply] Condition not met

[ask] Take the molecule `CSc1nc2ccc(S(=O)(=O)N3CCOCC3)cc2s1` and say whether its viability is less than 90%.
[reply] Condition not met

[ask] Take the molecule CCN(CC)CCCN1C(=O)C(=O)/C(=C(/O)c2ccc(C)cc2)C1c1ccccn1 (stereo unspecified) and say whether its viability is less than 90%.
[reply] Condition not met

[ask] Take the molecule `Oc1ccc(-c2onc(C(F)(F)F)c2-c2cscn2)c(O)c1` and say whether its viability is less than 90%.
[reply] Condition not met

[ask] Take the molecule `CCc1nnc(NC(=O)CCC(=O)Nc2ccccc2)s1` and say whether its viability is less than 90%.
[reply] Condition not met

[ask] Take the molecule `CC1CCN(C(=O)CSc2nnc(-c3cccnc3)n2C2CCCCC2)CC1` and say whether its viability is less than 90%.
[reply] Condition not met

[ask] Take the molecule `O=c1[nH]c2ccccc2n1CCCN1CCN(C(c2ccccc2)c2ccccc2)CC1` and say whether its viability is less than 90%.
[reply] Condition met

Data provenance is PubChem BioAssay.
